meta.source: paper PMC7048192

Each entry below lists one item and its recorded log10 of Ki value.
Biological target: hCA IX (Homo sapiens)
Construct: gene CA9; recombinant, obtained in-house
Test: stopped-flow CO2 hydrase assay
Assay type: biochemical
Conditions: read-out: KI (nM)^a,b / hCA IX
From the text: stopped-flow CO2 hydrase assay on hCA IX
experimental_endpoint: log10 of Ki (log10 of the value in nM)

compound	log10 of Ki
O=C(Nc1ccc2c(c1)C=CCS(=O)(=O)O2)c1ccccc1F [compound 14]	1.87
O=C(Nc1ccc2c(c1)C=CCS(=O)(=O)O2)c1ccccc1I [compound 12]	1.66
O=C(Nc1ccc2c(c1)C=CCS(=O)(=O)O2)c1ccc(Br)cc1 [compound 11]	2.55
O=C(Nc1ccc2c(c1)C=CCS(=O)(=O)O2)c1ccco1 [compound 17]	2.32
Cc1ccc(C(=O)Nc2ccc3c(c2)C=CCS(=O)(=O)O3)cc1 [compound 10]	1.92
CC(=O)Nc1ccc2c(c1)C=CCS(=O)(=O)O2 [compound 8]	1.79
O=C(Nc1ccc2c(c1)C=CCS(=O)(=O)O2)c1ccccc1C(F)(F)F [compound 15]	1.29
O=C(Nc1ccc2c(c1)C=CCS(=O)(=O)O2)c1ccccc1Br [compound 13]	1.82
O=C(Nc1ccc2c(c1)C=CCS(=O)(=O)O2)c1cccs1 [compound 16]	2.25
O=C(Nc1ccc2c(c1)C=CCS(=O)(=O)O2)c1ccccc1 [compound 9]	2.32

---

Target: hCA XII (Homo sapiens, UniProt O43570)
Construct: gene CA12; recombinant, obtained in-house
Sequence (O43570 25-354): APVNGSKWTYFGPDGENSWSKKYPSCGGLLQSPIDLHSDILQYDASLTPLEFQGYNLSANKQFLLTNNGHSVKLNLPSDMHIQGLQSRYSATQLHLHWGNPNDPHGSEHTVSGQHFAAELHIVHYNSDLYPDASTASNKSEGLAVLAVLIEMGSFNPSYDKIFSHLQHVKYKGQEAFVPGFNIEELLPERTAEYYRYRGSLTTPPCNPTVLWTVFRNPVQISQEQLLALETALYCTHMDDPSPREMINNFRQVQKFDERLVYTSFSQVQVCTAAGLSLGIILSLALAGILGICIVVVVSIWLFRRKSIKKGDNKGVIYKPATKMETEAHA
Experiment: stopped-flow CO2 hydrase assay
Type: biochemical
Details: read-out: KI (nM)^a,b / hCA XII
Source text: stopped-flow CO2 hydrase assay on hCA XII
The label is rule met for Ki below 200 nM and rule not met for Ki equal to or exceeding 200 nM.

compound	cat
O=C(Nc1ccc2c(c1)C=CCS(=O)(=O)O2)c1ccc(Br)cc1 [compound 11]	rule met
O=C(Nc1ccc2c(c1)C=CCS(=O)(=O)O2)c1ccccc1F [compound 14]	rule met
CC(=O)Nc1ccc2c(c1)C=CCS(=O)(=O)O2 [compound 8]	rule met
Cc1ccc(C(=O)Nc2ccc3c(c2)C=CCS(=O)(=O)O3)cc1 [compound 10]	rule not met
O=C(Nc1ccc2c(c1)C=CCS(=O)(=O)O2)c1ccccc1 [compound 9]	rule not met
O=C(Nc1ccc2c(c1)C=CCS(=O)(=O)O2)c1ccco1 [compound 17]	rule met
O=C(Nc1ccc2c(c1)C=CCS(=O)(=O)O2)c1cccs1 [compound 16]	rule met
O=C(Nc1ccc2c(c1)C=CCS(=O)(=O)O2)c1ccccc1I [compound 12]	rule not met
O=C(Nc1ccc2c(c1)C=CCS(=O)(=O)O2)c1ccccc1C(F)(F)F [compound 15]	rule met
O=C(Nc1ccc2c(c1)C=CCS(=O)(=O)O2)c1ccccc1Br [compound 13]	rule met

---

Reported Ki by item:
target: hCA II (Homo sapiens); construct: gene CA2; recombinant, obtained in-house; experiment: stopped-flow CO2 hydrase assay; type: biochemical; conditions: read-out: KI (nM)^a,b / hCA I

smiles_code	test_system	Ki
O=C(Nc1ccc2c(c1)C=CCS(=O)(=O)O2)c1ccc(Br)cc1	hCA II (Homo sapiens)	> 100000 nM
CC(=O)Nc1ccc2c(c1)C=CCS(=O)(=O)O2	hCA II (Homo sapiens)	> 100000 nM
O=C(Nc1ccc2c(c1)C=CCS(=O)(=O)O2)c1ccccc1Br	hCA II (Homo sapiens)	> 100000 nM
O=C(Nc1ccc2c(c1)C=CCS(=O)(=O)O2)c1ccccc1C(F)(F)F	hCA II (Homo sapiens)	> 100000 nM
O=C(Nc1ccc2c(c1)C=CCS(=O)(=O)O2)c1ccco1	hCA II (Homo sapiens)	> 100000 nM
